Assay: Plasma stability assay, rat plasma
Assay type: in vitro ADME
Conditions: 37 °C
Note to self: use Met only for remaining at 2 h, 10 μM readings below 90%; a reading exactly at 90% still gets Not met.

Exam item: State whether 90% exceeds remaining at 2 h, 10 μM recorded for `CC(=O)N(c1cc(C(=O)O)cc2[nH]ccc12)[C@@H]1O[C@H](CO)[C@@H](O[C@@H]2O[C@H](CO)[C@H](O)[C@H](O)[C@H]2O)[C@H](O)[C@H]1O` .
Marked response: Not met

Exam item: State whether 90% exceeds remaining at 2 h, 10 μM recorded for `CC(=O)N(c1cc(C(=O)O)cc2[nH]ccc12)[C@@H]1O[C@H](CO)[C@@H](S[C@@H]2O[C@H](CO)[C@H](O)[C@H](n3cc(-c4cccc(F)c4)nn3)[C@H]2O)[C@H](O)[C@H]1O` .
Marked response: Met

Exam item: State whether 90% exceeds remaining at 2 h, 10 μM recorded for `CC(=O)N(c1cc(O)cc(C(=O)O)c1)[C@@H]1O[C@H](CO)[C@@H](O[C@@H]2O[C@H](CO)[C@H](O)[C@H](O)[C@H]2O)[C@H](O)[C@H]1O` .
Marked response: Not met

Exam item: State whether 90% exceeds remaining at 2 h, 10 μM recorded for `CC(=O)c1c[nH]c2cc(C(=O)O)cc(N(C(C)=O)[C@@H]3O[C@H](CO)[C@@H](S[C@@H]4O[C@H](CO)[C@H](O)[C@H](n5cc(-c6cccc(F)c6)nn5)[C@H]4O)[C@H](O)[C@H]3O)c12` .
Marked response: Not met

Exam item: State whether 90% exceeds remaining at 2 h, 10 μM recorded for OC[C@H]1O[C@@H](S[C@@H]2O[C@H](CO)[C@H](O)[C@H](n3cc(-c4cccc(F)c4)nn3)[C@H]2O)[C@H](O)[C@@H](n2cc(-c3cccc(F)c3)nn2)[C@H]1O [GB0139, reference compound] .
Marked response: Met

---

Biological target: human galectin-3C (Gal-3C, C-terminal CRD of galectin-3) (Homo sapiens, UniProt P17931)
Construct: only the C-terminal domain was used (Gal-3C); 6xHis tag with TEV protease site (N, cleaved yes); made in house; host or cells: BL21 Escherichia coli (pET-15b)
Sequence (P17931 118-248 limits assumed): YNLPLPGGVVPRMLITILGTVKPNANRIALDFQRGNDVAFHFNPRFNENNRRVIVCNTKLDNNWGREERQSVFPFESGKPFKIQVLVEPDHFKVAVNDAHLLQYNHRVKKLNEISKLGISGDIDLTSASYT
Experiment: Competitive fluorescence polarization assay, Gal-3C
Type: binding
Conditions: four-parameter logistic model; mean ± SD; read-out: IC50 Gal-3C
quantity: pIC50
The quantity pIC50 is defined as the negative base-10 logarithm of the molar concentration.

Noted for `COc1ccc(N(C(C)=O)[C@@H]2O[C@H](CO)[C@@H](O[C@@H]3O[C@H](CO)[C@H](O)[C@H](O)[C@H]3O)[C@H](O)[C@H]2O)cc1` : its pIC50 reads 3.46

Noted for `CNC(=O)c1cccc(N(C(C)=O)[C@@H]2O[C@H](CO)[C@@H](O[C@@H]3O[C@H](CO)[C@H](O)[C@H](O)[C@H]3O)[C@H](O)[C@H]2O)c1` : its pIC50 reads 3.66

Noted for `CC(=O)N(c1ccc2c(c1)OCO2)[C@@H]1O[C@H](CO)[C@@H](O[C@@H]2O[C@H](CO)[C@H](O)[C@H](O)[C@H]2O)[C@H](O)[C@H]1O` : its pIC50 reads 3.46

Noted for `COC(=O)c1cc(N(C(C)=O)[C@@H]2O[C@H](CO)[C@@H](O[C@@H]3O[C@H](CO)[C@H](O)[C@H](O)[C@H]3O)[C@H](O)[C@H]2O)c2cc[nH]c2c1` : its pIC50 reads 4.37

Noted for `CC(=O)N(c1cc(Cl)cc(C(=O)O)c1)[C@@H]1O[C@H](CO)[C@@H](O[C@@H]2O[C@H](CO)[C@H](O)[C@H](O)[C@H]2O)[C@H](O)[C@H]1O` : its pIC50 reads 3.89

Noted for `CC(=O)N(c1cc(F)c(F)c(F)c1)[C@@H]1O[C@H](CO)[C@@H](O[C@@H]2O[C@H](CO)[C@H](O)[C@H](O)[C@H]2O)[C@H](O)[C@H]1O` : its pIC50 reads 3.48

Noted for `CC(=O)N(c1ccc(F)cc1)[C@@H]1O[C@H](CO)[C@@H](O[C@@H]2O[C@H](CO)[C@H](O)[C@H](O)[C@H]2O)[C@H](O)[C@H]1O` : its pIC50 reads 3.57

Noted for `CC(=O)N(c1cc(Br)cc(C(=O)O)c1)[C@@H]1O[C@H](CO)[C@@H](O[C@@H]2O[C@H](CO)[C@H](O)[C@H](O)[C@H]2O)[C@H](O)[C@H]1O` : its pIC50 reads 3.80

Noted for `CC(=O)N(c1ccccc1F)[C@@H]1O[C@H](CO)[C@@H](O[C@@H]2O[C@H](CO)[C@H](O)[C@H](O)[C@H]2O)[C@H](O)[C@H]1O` : its pIC50 reads 3.55

Noted for `CC(C)C(=O)N(c1cccc(C(=O)O)c1)[C@@H]1O[C@H](CO)[C@@H](O[C@@H]2O[C@H](CO)[C@H](O)[C@H](O)[C@H]2O)[C@H](O)[C@H]1O` : its pIC50 reads 3.96

Noted for CO[C@@H]1O[C@H](CO)[C@@H](O[C@@H]2O[C@H](CO)[C@H](O)[C@H](O)[C@H]2O)[C@H](O)[C@H]1O [β-LacOMe, methyl β-lactoside, reference compound] : its pIC50 reads 3.12

---

Answer each item with its documented pKd.
Molecular target: human galectin-3C (Gal-3C, C-terminal CRD of galectin-3) (Homo sapiens)
Construct: only the C-terminal domain was used (Gal-3C); 6xHis tag with TEV protease site (N, cleaved yes); made in house; host or cells: BL21 Escherichia coli (pET-15b)
Test: Competitive fluorescence polarization assay, Gal-3C
Type: binding
Conditions: CSV supplement, unrounded mean; read-out: Gal3C_Kd_mean_uM
The quantity pKd is defined as the negative base-10 logarithm of the molar concentration.

Noted for CC(=O)N(c1ccc(Cl)c(Cl)c1)[C@@H]1O[C@H](CO)[C@@H](O[C@@H]2O[C@H](CO)[C@H](O)[C@H](O)[C@H]2O)[C@H](O)[C@H]1O [Compound 3k] : its pKd reads 3.95

Noted for CO[C@@H]1O[C@H](CO)[C@@H](O[C@@H]2O[C@H](CO)[C@H](O)[C@H](O)[C@H]2O)[C@H](O)[C@H]1O [β-LacOMe, methyl β-lactoside, reference compound] : its pKd reads 3.63

Noted for CC(=O)N(c1cc(C(=O)O)cc2[nH]ccc12)[C@@H]1O[C@H](CO)[C@@H](S[C@@H]2O[C@H](CO)[C@H](O)[C@H](n3cc(-c4cccc(F)c4)nn3)[C@H]2O)[C@H](O)[C@H]1O [Compound 11] : its pKd reads 8.24

Noted for O=C(O)c1cccc(N(C(=O)Cc2ccccc2)[C@@H]2O[C@H](CO)[C@@H](O[C@@H]3O[C@H](CO)[C@H](O)[C@H](O)[C@H]3O)[C@H](O)[C@H]2O)c1 [Compound 3u] : its pKd reads 4.27

Noted for CC(=O)N(c1cccc(F)c1)[C@@H]1O[C@H](CO)[C@@H](O[C@@H]2O[C@H](CO)[C@H](O)[C@H](O)[C@H]2O)[C@H](O)[C@H]1O [Compound 3f] : its pKd reads 4.01

Noted for O=C(O)c1cccc(N(C(=O)c2ccccc2)[C@@H]2O[C@H](CO)[C@@H](O[C@@H]3O[C@H](CO)[C@H](O)[C@H](O)[C@H]3O)[C@H](O)[C@H]2O)c1 [Compound 3t] : its pKd reads 4.29

Noted for CC(=O)N(c1ccc(F)cc1)[C@@H]1O[C@H](CO)[C@@H](O[C@@H]2O[C@H](CO)[C@H](O)[C@H](O)[C@H]2O)[C@H](O)[C@H]1O [Compound 3e] : its pKd reads 4.06

Noted for CC(=O)N(c1cc(F)c(F)c(F)c1)[C@@H]1O[C@H](CO)[C@@H](O[C@@H]2O[C@H](CO)[C@H](O)[C@H](O)[C@H]2O)[C@H](O)[C@H]1O [Compound 3i] : its pKd reads 3.96

Noted for CC(=O)N(c1ccc(I)cc1)[C@@H]1O[C@H](CO)[C@@H](O[C@@H]2O[C@H](CO)[C@H](O)[C@H](O)[C@H]2O)[C@H](O)[C@H]1O [Compound 3l] : its pKd reads 3.95

Noted for CC(=O)N(c1cccc(C(=O)O)c1)[C@@H]1O[C@H](CO)[C@@H](O[C@@H]2O[C@H](CO)[C@H](O)[C@H](O)[C@H]2O)[C@H](O)[C@H]1O [Compound 3r] : its pKd reads 4.39

Noted for COC(=O)c1cccc(N(C(C)=O)[C@@H]2O[C@H](CO)[C@@H](O[C@@H]3O[C@H](CO)[C@H](O)[C@H](O)[C@H]3O)[C@H](O)[C@H]2O)c1 [Compound 3v] : its pKd reads 4.02
